# TEST_SUMMARY: refractive index (Na D-line) (dimensionless)
# TEST_PARAMETERS: 293.15 K; 101.33 kPa; Liquid; Standard Abbe refractometry
The following compounds are shown together with reported refractive index values.

COMPOUND: CCO
refractive index: 1.3616
//
COMPOUND: CC(=O)O
refractive index: 1.3717
//
COMPOUND: C=COC(C)=O [vinyl acetate]
refractive index: 1.3926
//
COMPOUND: O
refractive index: 1.3328
